- Tested On: CREB-binding protein (Homo sapiens)
- Protocol Details: Binding affinity to CREBBP (unknown origin) assessed as change in melting temperature at 10 uM by SYPRO Orange based differential scanning fluorimetry
With a cut-off of 0.9 °C, any ΔTm strictly below it is called T; any ΔTm meeting it or above is called F.

Molecule | Label Value
CN1C(=O)c2cccc3c(NC(=O)c4ccccc4)ccc1c23 | F
CN1C(=O)c2cccc3c(NCc4ccccc4)ccc1c23 | F
CN1C(=O)c2cccc3c(NS(=O)(=O)c4ccccc4)ccc1c23 | F
CN1C(=O)c2cccc3c(S(=O)(=O)Nc4ccccc4)ccc1c23 | T
CC(Nc1ccc2c3c(cccc13)C(=O)N2C)c1ccccc1 (stereo not given) | T
